Where do the numbers come from? From patent US8778923B2.

assayed target: GLP-1R (Homo sapiens)
Sequence (P43220 24-463): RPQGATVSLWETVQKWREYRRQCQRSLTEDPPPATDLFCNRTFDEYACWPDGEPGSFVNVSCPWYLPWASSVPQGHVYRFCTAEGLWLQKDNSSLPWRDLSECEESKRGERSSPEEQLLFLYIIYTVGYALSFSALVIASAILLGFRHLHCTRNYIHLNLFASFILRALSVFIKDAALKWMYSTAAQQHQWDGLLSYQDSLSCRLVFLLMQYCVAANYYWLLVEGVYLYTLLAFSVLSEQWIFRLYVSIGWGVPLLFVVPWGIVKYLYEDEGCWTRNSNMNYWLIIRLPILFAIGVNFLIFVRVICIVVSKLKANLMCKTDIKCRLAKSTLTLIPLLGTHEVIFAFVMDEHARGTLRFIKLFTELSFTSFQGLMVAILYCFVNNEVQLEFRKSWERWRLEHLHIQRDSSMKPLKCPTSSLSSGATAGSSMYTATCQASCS
Sequence (P01275 100-127 partner limits assumed): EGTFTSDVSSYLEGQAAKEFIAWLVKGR
procedure details: EC20 GLP-1(9-36) PAM cAMP assay: dose response of compound in the presence of fixed concentration of GLP-1(9-36)
conditions: GLP-1R CRE-bla CHO-K1 cells, compound dose response in presence of fixed concentration of GLP-1(9-36)
pEC50: −log10 of the molar value.
assay metric: pEC50

Item Cc1ccc(-c2nc(-c3ccc(C[C@H](NC(=O)c4ccc(C(C)(C)C)cc4)C(=O)O)cc3)no2)cc1 [Compound 7] with GLP-1R (Homo sapiens) - pEC50? 5.00 to 5.30

Item CCCCCCCOc1ccc(-c2cnc(-c3ccc(C[C@H](NC(=O)c4ccc(C(C)C)cc4)C(=O)N[C@@H](CC(=O)O)C(=O)O)cc3)nc2)cc1 [Compound 307] with GLP-1R (Homo sapiens) - pEC50? 5.60 to 6.10

Item CC(C)(C)c1ccc(-c2cnc(-c3ccc(C[C@@H](NC(=O)c4ccc(C(C)(C)C)s4)C(=O)O)cc3)nc2)cc1 [Compound 182] with GLP-1R (Homo sapiens) - pEC50? 5.60 to 6.10

Item CCCCCCCOc1ccc(-c2ncc(-c3ccc(C[C@H](NC(=O)c4ccc(C(C)(C)C)cc4)C(=O)O)cc3)cn2)cc1 [Compound 271] with GLP-1R (Homo sapiens) - pEC50? 5.60 to 6.10

Item CCCCCCCOc1ccc(-c2csc(-c3ccc(C[C@H](NC(=O)c4ccc(C(C)(C)C)cc4)C(=O)O)cc3)n2)cc1 [Compound 79] with GLP-1R (Homo sapiens) - pEC50? 5.60 to 6.10

Item CCCCCCCOc1ccc(-c2cnc(-c3ccc(C[C@H](NC(=O)c4ccc(C)cc4)C(=O)O)cc3)nc2)cc1 [Compound 110] with GLP-1R (Homo sapiens) - pEC50? 5.60 to 6.10

Item CC(C)c1ccc(-c2nc(-c3ccc(C[C@H](NC(=O)c4ccc(C(C)(C)C)cc4)C(=O)O)cc3)no2)cc1 [Compound 10] with GLP-1R (Homo sapiens) - pEC50? 5.30 to 5.60

Item CC(C)(C)c1ccc(C(=O)N[C@@H](Cc2ccc(-c3ncc(-c4cccc(C(F)(F)F)c4)cn3)cc2)C(=O)O)cc1 [Compound 210] with GLP-1R (Homo sapiens) - pEC50? 5.30 to 5.60

Item CC(C)(C)c1ccc(C(=O)N[C@@H](Cc2ccc(-c3ncc(-c4ccc(C(C)(C)C)cc4)cn3)cc2)C(=O)O)cc1 [Compound 199] with GLP-1R (Homo sapiens) - pEC50? 5.60 to 6.10

Item CCCCCCCOc1ccc(-c2cnc(-c3ccc(C[C@H](NC(=O)c4ccc(C(C)(C)C)cc4)C(=O)NCCC(=O)O)cc3)nc2)cc1 [Compound 298] with GLP-1R (Homo sapiens) - pEC50? > 6.10

Item CCCCCCCOc1ccc(-c2cnc(-c3ccc(C[C@H](NC(=O)c4ccc(OC)c(C)c4)C(=O)O)cc3)nc2)cc1 [Compound 118] with GLP-1R (Homo sapiens) - pEC50? > 6.10

Item CCCCCCCOc1ccc(-c2nc(-c3ccc(C[C@H](NC(=O)c4ccc(C(C)(C)C)cc4)C(=O)O)cc3)cs2)cc1 [Compound 80] with GLP-1R (Homo sapiens) - pEC50? 5.60 to 6.10

Item CCCCCCCCCCCCCCCCOc1ccc(-c2cnc(-c3ccc(C[C@H](NC(=O)c4ccc(C(C)(C)C)s4)C(=O)O)cc3)nc2)cc1 [Compound 252] with GLP-1R (Homo sapiens) - pEC50? 5.00 to 5.30

Item CC(C)(C)c1ccc(-c2cnc(-c3ccc(C[C@H](NC(=O)c4ccc(C(C)(C)C)s4)C(=O)NCC(=O)O)cc3)nc2)cc1 [Compound 351] with GLP-1R (Homo sapiens) - pEC50? > 6.10

Item CCCCCCCOc1ccc(-c2cnc(-c3ccc(C[C@H](NC(=O)c4ccc(OCCCC)cc4)C(=O)O)cc3)nc2)cc1 [Compound 129] with GLP-1R (Homo sapiens) - pEC50? 5.60 to 6.10

Item CCCCCCCOc1ccc(-c2nc(-c3ccc(C[C@H](NC(=O)c4ccc(C(C)(C)C)cc4)C(=O)O)cc3)co2)cc1 [Compound 78] with GLP-1R (Homo sapiens) - pEC50? 5.60 to 6.10

Item CCCCCCCOc1ccc(C2CCN(c3ccc(C[C@H](NC(=O)c4ccc(C(C)(C)C)cc4)C(=O)O)cc3)C2)cc1 (some centres unmarked) [Compound 265] with GLP-1R (Homo sapiens) - pEC50? 5.00 to 5.30

Item CCCCCCCOc1ccc(-c2cnc(-c3ccc(C[C@@H](CC(=O)O)NC(=O)c4ccc(C(C)(C)C)cc4)cc3)nc2)cc1 [Compound 291] with GLP-1R (Homo sapiens) - pEC50? 5.60 to 6.10

Item CCCCCCCOc1ccc(-c2cnc(-c3ccc(C[C@H](NC(=O)c4ccc(CC(C)C)s4)C(=O)O)cc3)nc2)cc1 [Compound 153] with GLP-1R (Homo sapiens) - pEC50? 5.60 to 6.10

Item CCCCCCCOc1ccc(-c2cnc(-c3ccc(C[C@@H](NC(=O)c4ccc(C(C)(C)C)s4)C(=O)N[C@@H](C)C(=O)O)cc3)nc2)cc1 [Compound 374] with GLP-1R (Homo sapiens) - pEC50? 5.60 to 6.10

Item CCCc1ccc(C(=O)N[C@@H](Cc2ccc(-c3ncc(-c4ccc(C(C)(C)C)cc4)cn3)cc2)C(=O)O)cc1 [Compound 164] with GLP-1R (Homo sapiens) - pEC50? 5.60 to 6.10

Item CCCCCCCCCCCCOc1ccc(-c2cnc(-c3ccc(C[C@H](NC(=O)c4ccc(C(C)(C)C)s4)C(=O)O)cc3)nc2)cc1 [Compound 250] with GLP-1R (Homo sapiens) - pEC50? 5.60 to 6.10

Item Cc1cccc(-c2ccc(-c3nc(-c4ccc(C[C@H](NC(=O)c5ccc(C(C)(C)C)cc5)C(=O)O)cc4)no3)cc2)c1 [Compound 13] with GLP-1R (Homo sapiens) - pEC50? 5.60 to 6.10

Item CCCCCCCOc1ccccc1-c1cnc(-c2ccc(C[C@H](NC(=O)c3ccc(C(C)(C)C)cc3)C(=O)O)cc2)nc1 [Compound 220] with GLP-1R (Homo sapiens) - pEC50? 5.30 to 5.60

Item CCCCCCCOc1ccc(-c2cnc(-c3ccc(C[C@H](NC(=O)c4ccc(C(C)(C)C)s4)C(=O)N4CCNC(C(=O)O)C4)cc3)nc2)cc1 (some centres unmarked) [Compound 339] with GLP-1R (Homo sapiens) - pEC50? 5.60 to 6.10

Item CCCCOc1ccc(-c2cnc(-c3ccc(C[C@H](NC(=O)c4ccc(C(C)(C)C)s4)C(=O)O)cc3)nc2)cc1 [Compound 237] with GLP-1R (Homo sapiens) - pEC50? 5.60 to 6.10

###

assayed target: UniProtKB P43220
procedure details: EC20 GLP-1(9-36) PAM cAMP assay: dose response of compound in the presence of fixed concentration of GLP-1(9-36)
conditions: GLP-1R CRE-bla CHO-K1 cells, compound dose response in presence of fixed concentration of GLP-1(9-36)
pEC50: −log10 of the molar value.
Would you kindly list pEC50 for each of these compounds?

Which pEC50 is listed for CC(C)c1ncc(C(=O)N[C@@H](Cc2ccc(-c3ncc(-c4ccc(C(C)(C)C)cc4)cn3)cc2)C(=O)O)s1 [Compound 180] ? > 6.10

Which pEC50 is listed for CCCCCCCN1CCN(c2cnc(-c3ccc(C[C@H](NC(=O)c4ccc(C(C)(C)C)cc4)C(=O)O)cc3)nc2)CC1 [Compound 254] ? 5.60 to 6.10

Which pEC50 is listed for CCCCCCCOc1ccc(-c2cnc(-c3ccc(C[C@H](NC(=O)c4ccc(-c5ccccc5)cc4)C(=O)O)cc3)nc2)cc1 [Compound 91] ? 5.60 to 6.10

Which pEC50 is listed for CC(C)(C)c1ccc(C(=O)NC(C(=O)O)c2ccc(-c3noc(-c4ccc(N5CCCCC5)cc4)n3)cc2)cc1 (stereo not shown) [Compound 72] ? 5.00 to 5.30

Which pEC50 is listed for CCCCCCCOc1ccc(-c2cnc(-c3ccc(C[C@H](NC(=O)c4ccc(C(C)(C)C)cc4)C(=O)N(C)CCC(=O)O)cc3)nc2)cc1 [Compound 302] ? 5.30 to 5.60

Which pEC50 is listed for CC(C)(C)c1ccc(-c2cnc(-c3ccc(C[C@H](NC(=O)c4ccc(S(C)(=O)=O)cc4)C(=O)O)cc3)nc2)cc1 [Compound 159] ? 5.60 to 6.10

Which pEC50 is listed for CCCCCCCOc1ccc(-c2cnc(-c3ccc(C[C@H](NC(=O)c4ccc(C(C)C)cc4)C(=O)NCC(=O)O)cc3)nc2)cc1 [Compound 317] ? > 6.10

Which pEC50 is listed for CC(C)(C)c1ccc(C(=O)N[C@@H](Cc2ccc(-c3noc(-c4ccc(N5CCCCC5)cc4)n3)cc2)C(=O)NCC(=O)O)cc1 [Compound 68] ? 5.30 to 5.60

Which pEC50 is listed for CCSc1ccc(-c2nc(-c3ccc(C[C@H](NC(=O)c4ccc(C(C)(C)C)cc4)C(=O)O)cc3)no2)cc1 [Compound 42] ? 5.30 to 5.60

Which pEC50 is listed for CCCCCCCOc1ccc(-c2cnc(-c3ccc(C[C@H](NC(=O)c4ccc(C(C)(C)C)cc4)C(=O)O)cc3)nc2N(C)C)cc1 [Compound 293] ? 5.30 to 5.60

Which pEC50 is listed for CCCCCOc1ccc(-c2cnc(-c3ccc(C[C@H](NC(=O)c4ccc(C(C)(C)C)cc4)C(=O)O)cc3)nc2)cc1 [Compound 224] ? 5.60 to 6.10

Which pEC50 is listed for CC(C)(C)c1ccc(-c2cnc(-c3ccc(C[C@@H](NC(=O)c4ccc(C(C)(C)C)s4)C(=O)NCC(=O)O)cc3)nc2)cc1 [Compound 373] ? 5.60 to 6.10

Which pEC50 is listed for CCCCCCCOc1ccc(-c2cnc(-c3ccc(C[C@H](NC(=O)c4ccc(NCCCC)cc4)C(=O)O)cc3)nc2)cc1 [Compound 124] ? 5.60 to 6.10
